Target: α3β2γ2 GABAA receptor (Homo sapiens, UniProt P18507+P34903+P47870)
Construct: expressed in transfected cells; host or cells: HEK293T
Sequence (P34903 29-492): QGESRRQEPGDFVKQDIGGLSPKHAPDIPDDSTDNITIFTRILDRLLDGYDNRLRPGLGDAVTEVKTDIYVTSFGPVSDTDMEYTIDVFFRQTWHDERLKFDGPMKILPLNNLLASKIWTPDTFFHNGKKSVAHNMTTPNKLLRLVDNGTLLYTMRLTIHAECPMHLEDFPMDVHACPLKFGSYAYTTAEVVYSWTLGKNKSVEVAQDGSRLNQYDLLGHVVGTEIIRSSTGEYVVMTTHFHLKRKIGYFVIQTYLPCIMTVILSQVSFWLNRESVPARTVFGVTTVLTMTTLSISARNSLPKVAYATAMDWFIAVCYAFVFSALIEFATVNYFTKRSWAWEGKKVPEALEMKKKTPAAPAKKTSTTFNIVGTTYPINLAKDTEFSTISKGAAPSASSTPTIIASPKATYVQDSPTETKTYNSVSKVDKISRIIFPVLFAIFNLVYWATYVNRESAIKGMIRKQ
Sequence (P47870 25-512 limits assumed): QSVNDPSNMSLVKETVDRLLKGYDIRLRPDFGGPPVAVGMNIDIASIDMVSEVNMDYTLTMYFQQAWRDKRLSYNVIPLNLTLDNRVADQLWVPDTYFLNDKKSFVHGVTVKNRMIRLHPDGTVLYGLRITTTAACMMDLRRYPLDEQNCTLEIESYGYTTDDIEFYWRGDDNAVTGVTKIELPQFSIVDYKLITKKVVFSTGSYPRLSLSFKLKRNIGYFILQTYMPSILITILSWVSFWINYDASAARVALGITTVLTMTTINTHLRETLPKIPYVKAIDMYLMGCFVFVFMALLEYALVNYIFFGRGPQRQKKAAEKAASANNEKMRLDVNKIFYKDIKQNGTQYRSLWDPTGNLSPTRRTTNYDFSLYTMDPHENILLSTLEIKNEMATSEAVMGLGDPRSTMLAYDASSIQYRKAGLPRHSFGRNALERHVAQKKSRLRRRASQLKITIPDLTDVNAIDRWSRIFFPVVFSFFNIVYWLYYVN
Sequence (P18507 40-467 isoform P18507-1 limits assumed): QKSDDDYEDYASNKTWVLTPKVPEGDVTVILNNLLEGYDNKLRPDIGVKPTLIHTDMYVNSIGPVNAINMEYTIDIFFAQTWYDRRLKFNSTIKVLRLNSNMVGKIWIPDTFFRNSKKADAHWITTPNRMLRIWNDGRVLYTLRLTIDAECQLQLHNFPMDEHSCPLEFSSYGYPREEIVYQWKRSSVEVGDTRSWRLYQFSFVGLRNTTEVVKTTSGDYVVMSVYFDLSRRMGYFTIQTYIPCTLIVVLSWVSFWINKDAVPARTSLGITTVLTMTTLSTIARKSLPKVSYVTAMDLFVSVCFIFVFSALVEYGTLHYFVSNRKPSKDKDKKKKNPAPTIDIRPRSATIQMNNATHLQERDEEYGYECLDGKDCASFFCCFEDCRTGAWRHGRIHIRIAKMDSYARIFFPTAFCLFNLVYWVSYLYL
Assay: Midazolam potentiation of EC10 GABA currents, whole-cell patch clamp, HEK293T
Type: cell-based
Conditions: EC50 (nM), midazolam potentiation of EC10 GABA
Reported Metric: EC50 (nM)
One number for each entry, in nM.

[in] Note EC50 for the compound shown: `Cc1ncc2n1-c1ccc(Cl)cc1C(c1ccccc1F)=NC2`
[out] 46.4

====

Target: α2β2γ2 GABAA receptor (Homo sapiens, UniProt P18507+P47869+P47870)
Sequence (P47869 29-451): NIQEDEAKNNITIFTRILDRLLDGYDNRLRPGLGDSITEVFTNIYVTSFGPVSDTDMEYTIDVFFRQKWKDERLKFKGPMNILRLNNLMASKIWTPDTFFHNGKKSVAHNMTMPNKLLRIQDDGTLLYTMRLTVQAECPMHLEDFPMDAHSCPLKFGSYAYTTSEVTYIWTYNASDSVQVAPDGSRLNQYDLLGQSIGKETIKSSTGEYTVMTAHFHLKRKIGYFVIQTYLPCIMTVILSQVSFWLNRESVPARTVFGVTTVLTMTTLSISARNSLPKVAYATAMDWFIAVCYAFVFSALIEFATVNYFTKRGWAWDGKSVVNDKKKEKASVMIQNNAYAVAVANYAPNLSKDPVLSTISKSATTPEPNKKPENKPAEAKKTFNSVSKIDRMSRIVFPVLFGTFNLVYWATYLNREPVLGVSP
Sequence (P47870 25-512 limits assumed): as the sequence (P47870 25-512 limits assumed) above
Sequence (P18507 40-467 isoform P18507-1 limits assumed): as the sequence (P18507 40-467 isoform P18507-1 limits assumed) above
Assay: Midazolam potentiation of EC10 GABA currents, whole-cell patch clamp, HEK293T
Reported Metric: pEC50
One number for each entry, as −log10 of the molar value.

[in] Report the value of pEC50 obtained on α2β2γ2 GABAA receptor (Homo sapiens, UniProt P18507+P47869+P47870) for `Cc1ncc2n1-c1ccc(Cl)cc1C(c1ccccc1F)=NC2` .
[out] 7.29
